# Test system: MKN45 cells
# assay_details: MKN45 cell proliferation assay (Cell-Titer-Glo, 120 hr)
# Format: cell-based
# condition_description: Homo sapiens, MKN-45, 120 h, read-out: MKN45 Cell Prolif. 120 hr EC50
# From the text: MKN45 cells were obtained from Celgene internal cell banks and cultured in RPMI complete media (RPMI-1640, 1× Penicillin/Streptomycin, 1× glutamine, 1× Sodium Pyruvate, Non-essential Amino Acids, 10% Fetal Bovine serum, all component from Thermo-Fisher). […] Luminescence data was processed per plate by subtracting reagent-only “blank” well luminescence from all measured values and calculating a percent of DMSO control value for each treatment well. […]
pEC50: −log10 of the molar value.
Catalogue of pEC50 readings, one per entry.
experimental_readout: pEC50

COC[C@@H]1CN(Cc2cc(F)c3nc(C4CCN(C(C)=O)C4)ccc3c2)C[C@H]1Oc1ccc2c(c1)CN([C@H]1CCC(=O)NC1=O)C2=O (relative stereo) :: 9.00
COC[C@@H]1CN(Cc2ccc3nc(C4CCN(C(C)=O)C(C)(C)C4)ncc3c2)C[C@H]1Oc1ccc2c(c1)CN([C@H]1CCC(=O)NC1=O)C2=O (stereo partly drawn) :: 8.70
CC(C)(O)[C@@H]1CN(Cc2ccc3nc(C4CCOCC4)ccc3c2)C[C@H]1Oc1ccc2c(c1)CN([C@H]1CCC(=O)NC1=O)C2=O (racemic) :: 6.63
COC[C@@H]1CN(Cc2cc3ccc(C(C)(C)O)cc3cn2)C[C@H]1Oc1ccc2c(c1)CN([C@H]1CCC(=O)NC1=O)C2=O :: 8.30
COC[C@@H]1CN(Cc2cc(F)c3nc(C4CN(CC(C)(C)O)C4)ccc3c2)C[C@H]1Oc1ccc2c(c1)CN([C@H]1CCC(=O)NC1=O)C2=O :: 8.70
COC[C@@H]1CN(Cc2ccc3nc(C4CCN(C5COC5)CC4)ccc3c2)C[C@H]1Oc1ccc2c(c1)CN([C@H]1CCC(=O)NC1=O)C2=O :: 9.00
COC[C@@H]1CN(Cc2cc(F)c3ncc(C4CCOCC4)cc3c2)C[C@H]1Oc1ccc2c(c1)CN([C@H]1CCC(=O)NC1=O)C2=O :: 9.00
COC[C@@H]1CN(Cc2cc(F)c3nc(N4CCN(C(C)=O)C5(COC5)C4)ccc3c2)C[C@H]1Oc1ccc2c(c1)CN([C@H]1CCC(=O)NC1=O)C2=O :: 9.00
COC[C@@H]1CN(Cc2ccc3nc(N4CCN(C(C)=O)C5(CC5)C4)ccc3c2)C[C@H]1Oc1ccc2c(c1)CN([C@H]1CCC(=O)NC1=O)C2=O :: 9.00
COC[C@@H]1CN(Cc2cc(F)c3nc(C4CCCN4C)ncc3c2)C[C@H]1Oc1ccc2c(c1)CN([C@H]1CCC(=O)NC1=O)C2=O (relative stereo) :: 7.37
COC[C@@H]1CN(Cc2cc(F)c3nc(N4CCC45COC5)ncc3c2)C[C@H]1Oc1ccc2c(c1)CN([C@H]1CCC(=O)NC1=O)C2=O :: 8.52
COC[C@@H]1CN(Cc2cc(F)c3nc(COC4CCN(C)CC4)ncc3c2)C[C@H]1Oc1ccc2c(c1)CN([C@H]1CCC(=O)NC1=O)C2=O :: 7.42

====

Catalogue of DC50 readings, one per entry.
# experimental_system: WEE1 (Homo sapiens, UniProt P30291+Q96SW2)
# Construct: C-terminal ePL-tagged (DiscoverX, Fremont, CA) full-length WEE1 expression construct; expressed in transfected cells; host or cells: LentiX-HEK293T (Invitrogen), lentivirally transduced; the cells also over-express GSPT1-GN
# Sequence (P30291 whole entry): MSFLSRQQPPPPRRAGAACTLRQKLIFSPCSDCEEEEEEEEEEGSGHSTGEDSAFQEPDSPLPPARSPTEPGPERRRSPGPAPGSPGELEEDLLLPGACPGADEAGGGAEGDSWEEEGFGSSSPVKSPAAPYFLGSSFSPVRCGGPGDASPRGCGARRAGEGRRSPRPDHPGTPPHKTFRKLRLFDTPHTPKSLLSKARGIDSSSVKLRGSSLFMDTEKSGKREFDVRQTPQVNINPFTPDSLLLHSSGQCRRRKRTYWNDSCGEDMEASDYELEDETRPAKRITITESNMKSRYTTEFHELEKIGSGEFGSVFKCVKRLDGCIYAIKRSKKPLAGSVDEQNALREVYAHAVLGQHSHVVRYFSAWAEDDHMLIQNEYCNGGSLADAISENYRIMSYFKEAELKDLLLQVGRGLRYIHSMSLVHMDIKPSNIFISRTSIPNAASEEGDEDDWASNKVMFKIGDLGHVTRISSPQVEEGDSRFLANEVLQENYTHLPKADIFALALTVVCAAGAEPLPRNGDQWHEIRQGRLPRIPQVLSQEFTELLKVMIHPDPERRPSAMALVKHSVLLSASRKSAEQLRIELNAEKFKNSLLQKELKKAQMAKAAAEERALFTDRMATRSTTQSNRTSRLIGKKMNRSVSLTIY
# Sequence (Q96SW2 whole entry): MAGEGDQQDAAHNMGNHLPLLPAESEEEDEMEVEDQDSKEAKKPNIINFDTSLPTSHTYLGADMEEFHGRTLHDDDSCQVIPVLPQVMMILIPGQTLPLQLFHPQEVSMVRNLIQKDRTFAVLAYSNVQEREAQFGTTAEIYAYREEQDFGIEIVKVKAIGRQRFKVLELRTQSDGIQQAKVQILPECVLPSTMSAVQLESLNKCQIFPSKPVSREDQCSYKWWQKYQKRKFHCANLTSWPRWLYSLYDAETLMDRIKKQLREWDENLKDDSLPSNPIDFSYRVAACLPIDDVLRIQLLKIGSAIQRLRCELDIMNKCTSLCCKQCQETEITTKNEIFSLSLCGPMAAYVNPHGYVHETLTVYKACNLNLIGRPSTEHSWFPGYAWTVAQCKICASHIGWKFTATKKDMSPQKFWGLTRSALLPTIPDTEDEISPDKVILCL
# Sequence (Q16531 whole entry partner): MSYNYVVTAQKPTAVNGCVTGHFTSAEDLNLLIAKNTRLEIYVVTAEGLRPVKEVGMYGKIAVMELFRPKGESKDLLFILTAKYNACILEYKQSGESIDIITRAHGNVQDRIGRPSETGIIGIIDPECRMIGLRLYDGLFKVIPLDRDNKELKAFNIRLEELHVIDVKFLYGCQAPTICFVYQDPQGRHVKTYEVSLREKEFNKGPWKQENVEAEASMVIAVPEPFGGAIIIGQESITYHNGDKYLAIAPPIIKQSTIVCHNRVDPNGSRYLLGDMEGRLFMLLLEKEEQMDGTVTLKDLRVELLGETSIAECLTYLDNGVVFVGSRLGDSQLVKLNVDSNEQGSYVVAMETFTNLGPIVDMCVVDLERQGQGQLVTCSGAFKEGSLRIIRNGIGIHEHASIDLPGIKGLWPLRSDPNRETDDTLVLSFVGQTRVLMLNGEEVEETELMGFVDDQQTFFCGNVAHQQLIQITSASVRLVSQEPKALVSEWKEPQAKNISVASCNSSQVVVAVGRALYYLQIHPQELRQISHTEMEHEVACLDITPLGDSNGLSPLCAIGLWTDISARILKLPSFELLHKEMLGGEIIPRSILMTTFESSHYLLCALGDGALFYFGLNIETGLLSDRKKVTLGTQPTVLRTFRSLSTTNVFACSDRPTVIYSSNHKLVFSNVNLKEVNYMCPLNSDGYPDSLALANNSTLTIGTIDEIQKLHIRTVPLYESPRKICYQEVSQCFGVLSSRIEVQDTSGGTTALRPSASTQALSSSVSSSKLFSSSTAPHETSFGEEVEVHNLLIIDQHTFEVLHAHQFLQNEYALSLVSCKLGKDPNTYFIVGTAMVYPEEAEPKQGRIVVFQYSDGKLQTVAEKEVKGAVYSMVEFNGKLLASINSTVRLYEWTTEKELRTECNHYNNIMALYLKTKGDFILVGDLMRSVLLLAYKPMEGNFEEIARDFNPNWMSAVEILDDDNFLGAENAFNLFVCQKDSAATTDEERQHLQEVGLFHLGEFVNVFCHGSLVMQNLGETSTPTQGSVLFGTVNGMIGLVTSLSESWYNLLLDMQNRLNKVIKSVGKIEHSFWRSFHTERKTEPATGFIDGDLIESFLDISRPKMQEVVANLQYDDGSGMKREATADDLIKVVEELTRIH
# assay_details: WEE1-ePL degradation assay (293T-LentiX, InCELL Hunter luminescence, 4 hr)
# Type: cell-based
# condition_description: LentiX-HEK293T cells expressing WEE1-ePL, 4 hr incubation; read-out: 293T-LentiX WEE1-ePL Degradation 4 hr EC50
experimental_readout: DC50 (nM)

O=C1CC[C@H](N2Cc3cc(O[C@H]4CCN(Cc5cc(F)c6nc(N7C[C@H]8CCO[C@H]8C7)ncc6c5)C4)ccc3C2=O)C(=O)N1 (single isomer, unassigned) [Example 9] :: 6
COC[C@@H]1CN(Cc2cc(F)c3nc(C4CCN(C5COC5)CC4)ccc3c2)C[C@H]1Oc1ccc2c(c1)CN([C@H]1CCC(=O)NC1=O)C2=O [Example 143] :: 1
COC[C@@H]1CN(Cc2cc(F)c3nc(N4CCN(C(C)=O)C5(COC5)C4)ccc3c2)C[C@H]1Oc1ccc2c(c1)CN([C@H]1CCC(=O)NC1=O)C2=O [Example 93] :: 1
COC[C@@H]1CN(Cc2cc(F)c3nc(C)c(N4CCOCC4)cc3c2)C[C@H]1Oc1ccc2c(c1)CN([C@H]1CCC(=O)NC1=O)C2=O [Example 100] :: 1
O=C1CCC(N2Cc3cc(O[C@@H]4CN(Cc5cc(F)c6nc(C7CCOCC7)ccc6c5)C[C@H]4OC4COC4)ccc3C2=O)C(=O)N1 (relative stereo) [Example 133] :: 70
COC[C@@H]1CN(Cc2ccc3nc(C4CCN(C(C)=O)C(C)(C)C4)ncc3c2)C[C@H]1Oc1ccc2c(c1)CN([C@H]1CCC(=O)NC1=O)C2=O (some centres unmarked) [Example 82] :: 2
CN1CC[C@]2(C[C@H](c3ccc4cc(CN5CC[C@H](Oc6ccc7c(c6)CN([C@H]6CCC(=O)NC6=O)C7=O)C5)ccc4n3)CO2)C1 (relative stereo) [Example 3] :: 10
COC[C@@H]1CN(Cc2cc(F)c3nc(C4CN(CC(C)(C)O)C4)ccc3c2)C[C@H]1Oc1ccc2c(c1)CN([C@H]1CCC(=O)NC1=O)C2=O [Example 120] :: 4
COC[C@@H]1CN(Cc2cc(F)c3nc(COC4CCOCC4)ccc3c2)C[C@H]1Oc1ccc2c(c1)CN([C@H]1CCC(=O)NC1=O)C2=O [Example 33] :: 1
COC[C@@H]1CN(Cc2cc(F)c3nc(N4CCN(CC(F)(F)F)CC4)ccc3c2)C[C@H]1Oc1ccc2c(c1)CN([C@H]1CCC(=O)NC1=O)C2=O [Example 44] :: 1
COC[C@@H]1CN(Cc2cc(F)c3nc(N4CCC(OC)C4)ccc3c2)C[C@H]1Oc1ccc2c(c1)CN([C@H]1CCC(=O)NC1=O)C2=O (single isomer, unassigned) [Example 98] :: 1
